These measurements were taken from ChEMBL document CHEMBL1132533.

- target-under-test: Protein farnesyltransferase (Mus musculus, UniProt Q61239+Q8K2I1)
- procedure-text: Inhibitory concentration against Farnesyltransferase for Farnesylation of H-ras protein InNIH 3T3 cells transformed with activated H-ras
pIC50: −log10 of the molar value.
property-measured: pIC50

Answered examples (5):
compound	pIC50
COC(=O)[C@H](CCSC)NC(=O)[C@@H]1C[C@@H](Oc2ccccc2)CN1C/C=C/[C@@H](N)CS	< 4.30
CCCc1ccccc1O[C@H]1C[C@H](C(=O)N[C@H](CCSC)C(=O)OC)N(C/C=C/[C@@H](N)CS)C1	< 5.00
COC(=O)[C@H](CCSC)NC(=O)[C@@H]1C[C@H](Oc2cccc3c2CCCC3)CN1C/C=C/C(N)CS (stereo partly specified)	< 5.00
COC(=O)[C@H](CCSC)NC(=O)[C@@H]1C[C@H](Oc2ccc(OC)c(OC)c2)CN1C/C=C/[C@@H](N)CS	< 4.30
COC(=O)[C@H](CCSC)NC(=O)[C@@H]1C[C@H](Oc2ccc(C(F)(F)F)cc2)CN1C/C=C/[C@@H](N)CS	< 4.30

Okay, now this compound:
stdin: Could you tell me which pIC50 is on file for COC(=O)[C@H](CCSC)NC(=O)[C@H]1C[C@H](Oc2ccccc2)CN1C/C=C/[C@@H](N)CS ?
stdout: < 4.30
